- targetOrTestSystem: APOL1 G1 (Homo sapiens, UniProt O14791, I384M/S342G)
- Sequence (O14791 28-398 S342G/I384M): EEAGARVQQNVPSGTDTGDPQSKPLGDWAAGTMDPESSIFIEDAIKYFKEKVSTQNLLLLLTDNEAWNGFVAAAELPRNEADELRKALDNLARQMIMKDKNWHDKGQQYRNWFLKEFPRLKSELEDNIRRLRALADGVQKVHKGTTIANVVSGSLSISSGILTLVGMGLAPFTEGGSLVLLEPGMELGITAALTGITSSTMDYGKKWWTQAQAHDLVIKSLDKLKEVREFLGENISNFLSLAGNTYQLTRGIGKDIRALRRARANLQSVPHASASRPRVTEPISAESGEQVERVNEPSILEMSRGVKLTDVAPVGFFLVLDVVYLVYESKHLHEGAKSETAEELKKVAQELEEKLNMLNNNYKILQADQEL
- testProtocol: Trypanosoma brucei brucei Lysis Assay Using APOL1 Recombinant Protein (AlamarBlue viability readout)
- Format: cell-based
- conditionsUsed: Trypanosome Assay; read-out: Trypanosome Assay Max Activity (%)
valueKind: Emax (%)
API: value field is a number in %; no unit string.

I am curious: what Emax value has been reported for COc1ccc2[nH]c([C@@H]3C[C@]4(C[C@H](C)N3)OCCc3cc(Cl)sc34)cc2n1 (racemic) [Compound 84] ?
112

Next compound: CC1CC2(CC(c3cc(F)cc(C#N)c3)N1)OCCc1cc(Cl)sc12 (centres unmarked) [Compound 33]
111

Next compound: C[C@H]1C[C@@]2(C[C@@H](c3cc4n(n3)CCCO4)N1)OCCc1cc(Cl)sc12 (racemic) [Compound 131]
111

Next compound: CC1CC2(CC(c3cncnc3)N1)OCCc1cc(Cl)sc12 (centres unmarked) [Compound 45]
103

Next compound: COc1ccc([C@@H]2C[C@]3(C[C@H](C)N2)OCCc2cc(Cl)sc23)cn1 (racemic) [Compound 49]
104

Next compound: C[C@H]1C[C@@]2(C[C@@H](c3cnc(-c4ccccc4)o3)N1)OCCc1cc(Cl)sc12 (racemic) [Compound 70]
104

Next compound: C[C@H]1C[C@@]2(C[C@@H](c3cn(C)nn3)N1)OC[C@@H](O)c1cc(Cl)sc12 [Compound 174]
104

Next compound: C[C@H]1C[C@@]2(C[C@@H](c3ccc4c(c3)NC(=O)CO4)N1)OCCc1cc(Cl)sc12 (racemic) [Compound 54]
102
